# credit: patent US10231954B2

Listed compounds paired with reported remaining activity at 100 µM
measured-on: NUAK1 (Homo sapiens)
Sequence (O60285 whole entry, species assumed): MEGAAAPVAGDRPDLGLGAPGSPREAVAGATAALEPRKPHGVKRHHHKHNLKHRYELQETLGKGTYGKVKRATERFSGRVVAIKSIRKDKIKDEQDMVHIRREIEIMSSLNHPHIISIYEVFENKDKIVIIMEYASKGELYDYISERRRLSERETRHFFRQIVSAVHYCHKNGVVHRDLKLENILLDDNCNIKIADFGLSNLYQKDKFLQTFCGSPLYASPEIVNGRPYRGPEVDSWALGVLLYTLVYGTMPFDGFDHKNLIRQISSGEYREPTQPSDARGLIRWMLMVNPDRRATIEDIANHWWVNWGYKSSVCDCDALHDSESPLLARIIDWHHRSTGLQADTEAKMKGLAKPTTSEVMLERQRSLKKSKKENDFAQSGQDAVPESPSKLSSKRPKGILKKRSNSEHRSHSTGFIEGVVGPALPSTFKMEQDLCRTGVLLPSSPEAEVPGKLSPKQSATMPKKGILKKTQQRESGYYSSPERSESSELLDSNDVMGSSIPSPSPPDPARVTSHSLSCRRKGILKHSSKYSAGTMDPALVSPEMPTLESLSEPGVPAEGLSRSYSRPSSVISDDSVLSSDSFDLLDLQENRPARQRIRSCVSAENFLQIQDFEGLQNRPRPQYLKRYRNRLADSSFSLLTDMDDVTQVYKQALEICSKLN
measurement-notes: Kinase profiling NUAK1
Type: biochemical
applied-conditions: 100 micromolar inhibitor concentration; 100 is no change; read-out: residual kinase activity, NUAK1
Quick note: give the figure in %, leave out the unit.

Some entries whose results are on file:
INSERT INTO assay_data (item_smiles, metric, result_value) VALUES
  ('CC(=O)Nc1nc2cc(F)ccc2s1', 'remaining activity at 100 µM', 66),
  ('CC(=O)Nc1nc2ccc(C(F)(F)F)cc2s1', 'remaining activity at 100 µM', 66),
  ('COc1ccc2sc(NC(C)=O)nc2c1', 'remaining activity at 100 µM', 84),
  ('CC(=O)Nc1nc2cc(C(F)(F)F)ccc2s1', 'remaining activity at 100 µM', 74);

Entry CC(=O)Nc1nc2ccc(C#N)cc2s1 : reported remaining activity at 100 µM = ?
46

Same question for CC(=O)Nc1nc2ccc(O)cc2s1 please.
26
